# experimental-system: T1, Cynomolgus OSM (cynomolgus, UniProt A0A2K5VPC6 26-221)
# T1 construct: also called Cyno OSM; cynomolgus macaque OSM
# T1 sequence: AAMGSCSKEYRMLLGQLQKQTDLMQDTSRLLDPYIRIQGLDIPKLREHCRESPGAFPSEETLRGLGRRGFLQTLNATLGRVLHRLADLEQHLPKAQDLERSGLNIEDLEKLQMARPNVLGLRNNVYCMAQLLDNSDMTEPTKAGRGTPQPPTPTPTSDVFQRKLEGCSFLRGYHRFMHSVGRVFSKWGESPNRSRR
# test: BIAcore kinetics, transfection supernatant
parameter: koff (s⁻¹)
State just the number; it will be interpreted in s⁻¹.

So what's the measured koff for this one? Humanised 10G8 H0(IGHV3-23)L1(IGK4-1) (antibody, V domains shown, built from the stated exchange of CDRL2; residue limits derived by me; also called H0 IGHV3_23 + L1 IGKV4_1; H0(huCDRH1)L1(huCDRL2)) VH: EVQLVESGGGLVQPGGSLRLSCAASGFTFSSYAMSWVRQAPGKGLEWVATISDGGSFTYYLDNVRGRFTISRDNAKNSLYLQMNSLRAEDTAVYYCARDVGHTTFWYFDVWGRGTLVTVSS VL: DIVMTQSPDSLAVSLGERATINCRASKSVSAAGYNFMHWYQQKPGQPPKVLIYWASTRESGVPDRFSGSGSGTDFTLTISSLQAEDVAVYYCLHSREFPFTFGGGTKVEIK
0.000223

Same read-out for Humanised 10G8 H0 IGHV3_7 + L1 IGKV4_1 (antibody, V domains shown, built from the stated CDR exchanges; residue limits derived by me) VH: EVQLVESGGGLVQPGGSLRLSCAASGFTFSSYWMSWVRQAPGKGLEWVATISDGGSFTYYLDNVRGRFTISRDNAKNSLYLQMNSLRAEDTAVYYCARDVGHTTFWYFDVWGRGTLVTVSS VL: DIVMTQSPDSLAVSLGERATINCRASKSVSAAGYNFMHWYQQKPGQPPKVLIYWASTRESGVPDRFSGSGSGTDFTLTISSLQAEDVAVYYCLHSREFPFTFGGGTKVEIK ?
0.00177

Now the binder Humanised 10G8 H0 IGHV3_7 + L1 (antibody, V domains shown, built from the statement that the germline CDRH1 was exchanged for the mouse CDRH1 in H0; Human gamma 1/kappa constant regions) VH: EVQLVESGGGLVQPGGSLRLSCAASGFTFSSYWMSWVRQAPGKGLEWVATISDGGSFTYYLDNVRGRFTISRDNAKNSLYLQMNSLRAEDTAVYYCARDVGHTTFWYFDVWGRGTLVTVSS VL: DIVMTQSPDSLAVSLGERATINCRASKSVSAAGYNFMHWYQQKPGQPPKVLIYYASNLESGVPDRFSGSGSGTDFTLTISSLQAEDVAVYYCLHSREFPFTFGGGTKVEIK
0.815

Then this binder: Humanised 10G8 H0 IGHV3_23 + L1 IGKV1_5 (antibody, V domains shown, built from the stated exchange of CDRL2; residue limits derived by me) VH: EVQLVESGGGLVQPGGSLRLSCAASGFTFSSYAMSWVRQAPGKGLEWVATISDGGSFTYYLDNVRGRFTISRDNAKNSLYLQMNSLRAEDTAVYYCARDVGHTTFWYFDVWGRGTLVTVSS VL: DIVMTQSPDSLAVSLGERATINCRASKSVSAAGYNFMHWYQQKPGQPPKVLIYKASSLESGVPDRFSGSGSGTDFTLTISSLQAEDVAVYYCLHSREFPFTFGGGTKVEIK
0.000593

Query Humanised 10G8 H0L1(IGKV4-1) (antibody, V domains shown, built from the stated exchange of CDRL2; residue limits derived by me; Human gamma 1/kappa constant regions; also called H0L1(huCDRL2)) VH: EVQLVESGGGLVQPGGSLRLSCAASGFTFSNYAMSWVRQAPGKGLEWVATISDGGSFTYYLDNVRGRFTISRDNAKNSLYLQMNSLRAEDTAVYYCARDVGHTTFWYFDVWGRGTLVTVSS VL: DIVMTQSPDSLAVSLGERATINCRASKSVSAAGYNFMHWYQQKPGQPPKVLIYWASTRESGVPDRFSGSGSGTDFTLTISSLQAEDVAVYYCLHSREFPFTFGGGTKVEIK next
0.000212

Same thing, different binder: Humanised 10G8 H0L1 (antibody, human IgG1, kappa, V domains shown, IgG1 kappa; mature H0 heavy chain and mature L1 light chain; also called Humanised 10G8 H0L1 parent) VH: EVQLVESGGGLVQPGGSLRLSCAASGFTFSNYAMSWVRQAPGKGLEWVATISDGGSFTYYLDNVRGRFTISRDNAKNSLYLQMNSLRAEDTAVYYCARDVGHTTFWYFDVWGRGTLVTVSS VL: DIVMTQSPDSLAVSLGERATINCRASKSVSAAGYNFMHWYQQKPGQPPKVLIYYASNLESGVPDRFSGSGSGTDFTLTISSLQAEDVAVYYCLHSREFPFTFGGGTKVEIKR
0.000104

Another binder to look at: Humanised 10G8 H0(IGHV3-23)L1 (antibody, human IgG1, kappa, V domains shown, IgG1 kappa; also called H0(huCDRH1)L1; H0 (CDRH1 IGHV3_23) L1) VH: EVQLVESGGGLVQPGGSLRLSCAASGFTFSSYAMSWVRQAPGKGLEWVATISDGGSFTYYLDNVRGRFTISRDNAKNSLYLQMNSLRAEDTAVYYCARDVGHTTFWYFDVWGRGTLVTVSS VL: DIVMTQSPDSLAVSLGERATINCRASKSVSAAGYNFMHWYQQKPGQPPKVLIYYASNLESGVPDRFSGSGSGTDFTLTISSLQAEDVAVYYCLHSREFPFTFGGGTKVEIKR
0.000109

// next entry
Need koff of Humanised 10G8 H0 + L1 IGKV1_5 (antibody, V domains shown, built from the stated exchange of CDRL2; residue limits derived by me; Human gamma 1/kappa constant regions) VH: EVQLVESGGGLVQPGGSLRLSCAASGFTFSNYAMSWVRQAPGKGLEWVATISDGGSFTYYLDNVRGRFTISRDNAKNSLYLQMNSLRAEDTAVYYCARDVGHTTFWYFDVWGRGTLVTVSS VL: DIVMTQSPDSLAVSLGERATINCRASKSVSAAGYNFMHWYQQKPGQPPKVLIYKASSLESGVPDRFSGSGSGTDFTLTISSLQAEDVAVYYCLHSREFPFTFGGGTKVEIK , thanks.
0.000557
